Reported pIC50 values for the following molecules.
target-or-system: AHR (UniProt P35869)
Construct: IC50
test-name: DRE-Luciferase Reporter Assay (Alternate Method) (Example 1B)
Type: cell-based, murine or human
measurement-conditions: cell line and AHR activating ligand not specified
pIC50: −log10 of the molar value.

Solved entries:
molecule=COc1ccccc1-c1cc(NCCc2c[nH]c3ccccc23)n2ncc(C(C)C)c2n1 target_or_system="AHR (UniProt P35869)" property_label=pIC50 recorded_value="< 5.82"
molecule="Cc1cnn2c(N[C@H](Cc3c[nH]c4ccccc34)C(N)=O)cc(-c3cncc(F)c3)nc12 [I-190a]" target_or_system="AHR (UniProt P35869)" property_label=pIC50 recorded_value="< 5.82"

Now take the following molecule into account.
input: Recorded pIC50 of Cc1cnn2c(NCCc3cn[nH]c3)cc(-c3cncc(F)c3)nc12 , please.
output: < 5.82

Source: patent US11358969B2
